These measurements were taken from patent US3953474A.

Assay: Acute oral toxicity in mice
Conditions: mouse, in vivo
measurement.kind: LD50 (mg/kg)

>  <compound>
CCCOC1(C(C)C(=O)O)OC(CC2CC(OC)C(C)C3(O2)OC(C)(C2CCC(C4CCC(C5OC(C)(O)C(C)C(OC)C5C)O4)O2)C(OC)C3C)C(C)(OC)C(OC2CCC(OC)C(C)O2)C1C (centres unmarked) [A204I n-propyl ether, A204I n-propyl ether derivative]

>  <measurement.kind>
LD50

>  <measured.number>
38

$$$$
